System: Human B Lymphocyte cell line, SU-DHL-8
experiment: Relative cell viability (CCK-8), SU-DHL-8
Assay type: cell-based
assay.setup: SU-DHL-8, 50 μM, 48 hours, untreated cells (DMSO) = 100%
Entries annotated with measured Relative cell viability (%)
The figure you give is taken to be in %; do not add the unit.

Reference set (6 entries):
>>> df
                                   molecule  assay_value
0  Cc1ccc(C2CCN(CCCCCCCCCCCCNC(=O)c3cccnc3N)CC2)cc1         0.97
1  Cc1ccc(OC2CCN(CCCCCCCCCCCCNC(=O)c3cccnc3N)CC2)cc1         0.48
2  CN1CCN(C2CCN(CCCCCCCCCCCCNC(=O)c3cccnc3N)CC2)CC1        31.72
3  Nc1ncccc1C(=O)NCCCCCCCCCCCCN1CCN(Cc2ccc(F)cc2)CC1         0.56
4  Nc1ncccc1C(=O)NCCCCCCCCCCCCN1CCS(=O)(=O)CC1         0.95
5  CN(C)CCN1CCN(CCCCCCCCCCCCNC(=O)c2cccnc2N)CC1         2.66

Now for a further molecule.
Query Relative cell viability (%) on Human B Lymphocyte cell line, SU-DHL-8 for CN(C)C1CCN(CCCCCCCCCCCCNC(=O)c2cccnc2N)C1 (stereo not shown) 5.08

----------
Tested on: T cells isolated from mouse spleens
experiment: T cell proliferation inhibition (CFSE flow cytometry, anti-CD3/anti-CD28 activation)
Assay type: cell-based, C57BL/6 mice
assay.setup: 10 nM, mouse spleen T cells, CD3/CD28 activated, cultured three days
Below: a set of entries, each annotated with reported Proliferation inhibition rate (%).
Output spec: scalar in %, unitless text.

Please review the following examples before continuing.
                                   molecule                         observable  unit_spec  assay_value
0  CN(C)CCN1CCN(CCCCCCCCCCCCNC(=O)c2cccnc2N)CC1  Proliferation inhibition rate (%)          %       −36.05
1  Nc1ncccc1C(=O)NCCCCCCCCCCCCn1ccc2c(Cl)c(I)cnc21  Proliferation inhibition rate (%)          %         0.15
2  Cc1ccc(OC2CCN(CCCCCCCCCCCCNC(=O)c3cccnc3N)CC2)cc1  Proliferation inhibition rate (%)          %         0.77
3   Nc1ncccc1C(=O)NCCCCCCCCCCCCN1CC(F)(F)C1  Proliferation inhibition rate (%)          %         0.00
4  CC1(C)CCN(CCCCCCCCCCCCNC(=O)c2cccnc2N)C1  Proliferation inhibition rate (%)          %        −0.80
5  CN1CCN(C2CCN(CCCCCCCCCCCCNC(=O)c3cccnc3N)CC2)CC1  Proliferation inhibition rate (%)          %         0.00

Using the record for CC(C)(C)OC(=O)N1CCN(CCCCCCCCCCCCNC(=O)c2cccnc2N)CC1 , report its Proliferation inhibition rate (%). 0.00

Return reported Proliferation inhibition rate (%); argument: Nc1ncccc1C(=O)NCCCCCCCCCCCCN1CC=CC1 0.00

Quick one: Proliferation inhibition rate (%) for Nc1ncccc1C(=O)NCCCCCCCCCCCCN1CCN(C(=O)C2CC2)CC1 ? −12.13

For the molecule shown here, CC(C)(C)OC(=O)NC1CCN(CCCCCCCCCCCCNC(=O)c2cccnc2N)CC1 , give the reported Proliferation inhibition rate (%). −0.15

Recorded Proliferation inhibition rate (%) for CN1CCN(CCCCCCCCCCCCNC(=O)c2cccnc2F)CC1 , please? 0.00

Fill blank: measured Proliferation inhibition rate (%) of the molecule Nc1ncccc1C(=O)NCCCCCCCCCCCCN1CCN(Cc2ccc(F)cc2)CC1 is ____. 2.27

Entry under review: CC(C)N1CCN(CCCCCCCCCCCCNC(=O)c2cccnc2N)CC1 . Reported Proliferation inhibition rate (%)? 100.00

Entry under review: COc1ccc(CN2CCN(CCCCCCCCCCCCNC(=O)c3cccnc3N)CC2)cc1 . Reported Proliferation inhibition rate (%)? −0.27

What does the record list as Proliferation inhibition rate (%) for CN(C)C1CCN(CCCCCCCCCCCCNC(=O)c2cccnc2N)C1 (stereo not drawn) ? −14.40
